// provenance: patent US20220112288A1

Target: T1, Recombinant human CD4 (R&D Systems, Cat. 10327-CD) (human, UniProt P01730 26-390, limits assumed)
T1 construct: Soluble analyte in the Octet assay
Assay: BLI Octet, mAb on anti-mouse Fc sensor, CD4 100/50/25 nM, 1:1 global fit;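 also: antibodies loaded at 10 µg/mL, an unrelated mouse-derived antibody served as internal reference control, association and dissociation phases fitted after Savitzky-Golay smoothing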
Quantity: koff (s⁻¹)
The response must be a number in s⁻¹ with no trailing unit.

Consider the binder shown here: 75110_01D24A (antibody, V domains shown, Tested as antibody purified from AlivaMab Mouse hybridoma supernatant (captured by anti-mouse IgG Fc)) VH: QVQLQQWGAGLLKPSETLSLTCAVYGGSFSGYYWSWIRQPPGKGLEWIGEINHSGSTNYNPSLKSRVTISVDTSENQFSLKLNSVTAADTAVYYCARLVNWFDPWGQGTLVTVSS VL: EIQMTQSPSSVSASVGDRVTITCRASQDISNWLAWYQQKPGKAPNLLIFAASSLQTGVPSRFSGSGSGTDFTLTISSLQPDDFATYYCQQANSFPYSFGQGTNLGIK What is its recorded koff?
0.0017

Consider the binder shown here: 75110_01A06A (antibody, V domains shown, Tested as antibody purified from AlivaMab Mouse hybridoma supernatant (captured by anti-mouse IgG Fc)) VH: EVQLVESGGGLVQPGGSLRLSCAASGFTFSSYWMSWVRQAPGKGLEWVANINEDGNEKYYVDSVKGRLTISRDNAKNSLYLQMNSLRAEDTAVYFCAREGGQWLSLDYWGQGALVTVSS VL: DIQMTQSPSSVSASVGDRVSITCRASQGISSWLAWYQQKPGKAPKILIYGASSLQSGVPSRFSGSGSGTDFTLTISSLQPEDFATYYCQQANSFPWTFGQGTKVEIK What is its recorded koff?
0.0014

Consider the binder shown here: 75110_04F22A (antibody, V domains shown, Tested as antibody purified from AlivaMab Mouse hybridoma supernatant (captured by anti-mouse IgG Fc)) VH: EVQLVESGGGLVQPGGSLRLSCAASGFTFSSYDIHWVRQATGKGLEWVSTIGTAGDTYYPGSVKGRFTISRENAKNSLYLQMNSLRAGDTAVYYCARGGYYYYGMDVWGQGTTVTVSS VL: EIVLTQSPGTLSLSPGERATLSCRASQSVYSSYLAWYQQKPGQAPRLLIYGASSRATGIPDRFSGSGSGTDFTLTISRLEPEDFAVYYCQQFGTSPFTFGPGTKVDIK What is its recorded koff?
0.00021

Consider the binder shown here: 75110_01J17A (antibody, V domains shown, Tested as antibody purified from AlivaMab Mouse hybridoma supernatant (captured by anti-mouse IgG Fc)) VH: EVQLVESGGGLVQPGGSLRLSCAASGFTFSSYDMHWVRQGTGKGLEWVSTIGTADDTYYPGSVKGRFTISRENAENSLYLQMNSLRAGDTAVYYCARGGDYYYGMDVWGQGTTVTVSS VL: EIVLAQSPGTLSLSPGERATLSCRASQSVYISYLAWYQQKPGQAPRLLIYGASSRATGIPDRFSGSGSGTDFTLTITRLEPEDFAVYYCQQFGSSPFTFGPGTKVDFK What is its recorded koff?
0.00012

Consider the binder shown here: 75110_04G16A (antibody, V domains shown, Tested as antibody purified from AlivaMab Mouse hybridoma supernatant (captured by anti-mouse IgG Fc)) VH: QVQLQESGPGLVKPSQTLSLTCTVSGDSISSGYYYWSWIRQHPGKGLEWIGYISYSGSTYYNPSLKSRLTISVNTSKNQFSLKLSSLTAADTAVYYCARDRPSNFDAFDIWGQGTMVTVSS VL: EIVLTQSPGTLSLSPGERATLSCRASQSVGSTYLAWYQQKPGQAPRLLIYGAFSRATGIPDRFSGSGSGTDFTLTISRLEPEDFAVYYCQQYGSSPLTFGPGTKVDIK What is its recorded koff?
0.00047

Consider the binder shown here: 75110_03L12A (antibody, V domains shown, Tested as antibody purified from AlivaMab Mouse hybridoma supernatant (captured by anti-mouse IgG Fc)) VH: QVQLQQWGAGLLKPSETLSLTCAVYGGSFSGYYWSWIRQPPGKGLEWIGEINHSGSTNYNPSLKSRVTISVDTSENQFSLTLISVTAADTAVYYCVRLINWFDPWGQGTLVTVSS VL: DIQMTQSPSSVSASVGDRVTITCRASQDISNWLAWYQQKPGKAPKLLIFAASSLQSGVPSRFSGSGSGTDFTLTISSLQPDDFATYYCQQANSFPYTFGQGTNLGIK What is its recorded koff?
0.00076

Consider the binder shown here: 75110_02E22A (antibody, V domains shown, Tested as antibody purified from AlivaMab Mouse hybridoma supernatant (captured by anti-mouse IgG Fc)) VH: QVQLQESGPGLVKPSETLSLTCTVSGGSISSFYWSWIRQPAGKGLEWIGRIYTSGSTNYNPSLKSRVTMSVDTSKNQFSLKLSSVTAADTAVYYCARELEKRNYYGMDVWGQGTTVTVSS VL: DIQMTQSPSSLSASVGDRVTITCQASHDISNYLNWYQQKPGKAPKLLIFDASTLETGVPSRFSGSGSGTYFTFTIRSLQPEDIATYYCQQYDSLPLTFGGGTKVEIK What is its recorded koff?
0.0031

Consider the binder shown here: 75110_04H17A (antibody, V domains shown, Tested as antibody purified from AlivaMab Mouse hybridoma supernatant (captured by anti-mouse IgG Fc)) VH: QVQLQESGPGLVKPSETLSLTCTVSGGSISTYYWSWIRQSAGKGLEWIGRIYTSERPNYNPSLKSRVTMSVDTSKNQFSLKLNSVSAADTAVYYCARELERPYYYGMDVWGQGTTVTVSS VL: DVQMTQSPSSLSASVGGRVTITCQASQDISNYLNWYQQKPGKAPKLLIYYASNLETGVPSRFSGSGSGTDFTFTISSLQPEDFATYYCQQYDNLPLTFGGGTKVEIK What is its recorded koff?
1.8e-05
